Target: human GIP receptor (Homo sapiens, UniProt P48546)
Construct: host or cells: COS-7 (transient, calcium phosphate; pCMV-Script vector)
Sequence (P48546 22-466): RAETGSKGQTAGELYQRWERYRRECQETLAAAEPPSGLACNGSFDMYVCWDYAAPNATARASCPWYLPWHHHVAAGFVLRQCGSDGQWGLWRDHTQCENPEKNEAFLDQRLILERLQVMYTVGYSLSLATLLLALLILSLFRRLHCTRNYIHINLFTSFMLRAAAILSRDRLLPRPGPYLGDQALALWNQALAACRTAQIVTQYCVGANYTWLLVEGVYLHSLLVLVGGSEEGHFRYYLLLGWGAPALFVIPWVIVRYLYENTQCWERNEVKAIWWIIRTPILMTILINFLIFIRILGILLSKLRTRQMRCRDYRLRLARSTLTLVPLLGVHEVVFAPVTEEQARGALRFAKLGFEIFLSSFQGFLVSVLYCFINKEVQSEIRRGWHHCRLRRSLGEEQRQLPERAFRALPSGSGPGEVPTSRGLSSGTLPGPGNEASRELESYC
Assay: cAMP accumulation assay (HitHunter cAMP XS) in transiently transfected COS-7 cells expressing the human GIP receptor
Assay type: cell-based
Settings: Table 2; EC50 relative to native GIP
Procedure: The day after, the cells were washed twice with Hepes buffered saline (HBS) buffer and incubated with HBS and 1 mM 3-isobutyl-1-methylxanthine (IBMX) for 30 min at 37° C. Ligands were added and incubated for 30 min at 37° C. The HitHunter™ cAMP XS assay (DiscoveRx) was carried out according to the manufacturer's instructions.
Ends that are not written are not given here.
# reported fold (fold change of native GIP), GIP receptor; entries follow
readout label: fold (fold change of native GIP), GIP receptor (fold)

INSERT INTO measurements (primary_sequence, target_under_test, test_value) VALUES
  ('HADGTFISDYSTILDNLKARDFINWLIQTKITK [Co-agonist 27]', 'human GIP receptor (Homo sapiens, UniProt P48546)', 6.2),
  ('HADGTFISDYSTILDKLAARDFINWLIQTKITK [Co-agonist 26]', 'human GIP receptor (Homo sapiens, UniProt P48546)', 0.34),
  ('HADGTFISDYSTIKDNLAARDFINWLIQTKITK [Co-agonist 25]', 'human GIP receptor (Homo sapiens, UniProt P48546)', 4.9),
  ('HADGTFISDYSKILDNLAARDFINWLIQTKITK [Co-agonist 24]', 'human GIP receptor (Homo sapiens, UniProt P48546)', 1.7);

// provenance: patent US11725037B2
